These records show IC50 for EGFR (human) (UniProt P00533).
Provide only the numeric value, understood in µM.

Incoming: Form field - read-out: IC50; system: EGFR (human) (UniProt P00533); submitted item: COc1cc2nccc(Oc3ccccc3)c2cc1OC
Sequence (P00533 whole entry, looked up): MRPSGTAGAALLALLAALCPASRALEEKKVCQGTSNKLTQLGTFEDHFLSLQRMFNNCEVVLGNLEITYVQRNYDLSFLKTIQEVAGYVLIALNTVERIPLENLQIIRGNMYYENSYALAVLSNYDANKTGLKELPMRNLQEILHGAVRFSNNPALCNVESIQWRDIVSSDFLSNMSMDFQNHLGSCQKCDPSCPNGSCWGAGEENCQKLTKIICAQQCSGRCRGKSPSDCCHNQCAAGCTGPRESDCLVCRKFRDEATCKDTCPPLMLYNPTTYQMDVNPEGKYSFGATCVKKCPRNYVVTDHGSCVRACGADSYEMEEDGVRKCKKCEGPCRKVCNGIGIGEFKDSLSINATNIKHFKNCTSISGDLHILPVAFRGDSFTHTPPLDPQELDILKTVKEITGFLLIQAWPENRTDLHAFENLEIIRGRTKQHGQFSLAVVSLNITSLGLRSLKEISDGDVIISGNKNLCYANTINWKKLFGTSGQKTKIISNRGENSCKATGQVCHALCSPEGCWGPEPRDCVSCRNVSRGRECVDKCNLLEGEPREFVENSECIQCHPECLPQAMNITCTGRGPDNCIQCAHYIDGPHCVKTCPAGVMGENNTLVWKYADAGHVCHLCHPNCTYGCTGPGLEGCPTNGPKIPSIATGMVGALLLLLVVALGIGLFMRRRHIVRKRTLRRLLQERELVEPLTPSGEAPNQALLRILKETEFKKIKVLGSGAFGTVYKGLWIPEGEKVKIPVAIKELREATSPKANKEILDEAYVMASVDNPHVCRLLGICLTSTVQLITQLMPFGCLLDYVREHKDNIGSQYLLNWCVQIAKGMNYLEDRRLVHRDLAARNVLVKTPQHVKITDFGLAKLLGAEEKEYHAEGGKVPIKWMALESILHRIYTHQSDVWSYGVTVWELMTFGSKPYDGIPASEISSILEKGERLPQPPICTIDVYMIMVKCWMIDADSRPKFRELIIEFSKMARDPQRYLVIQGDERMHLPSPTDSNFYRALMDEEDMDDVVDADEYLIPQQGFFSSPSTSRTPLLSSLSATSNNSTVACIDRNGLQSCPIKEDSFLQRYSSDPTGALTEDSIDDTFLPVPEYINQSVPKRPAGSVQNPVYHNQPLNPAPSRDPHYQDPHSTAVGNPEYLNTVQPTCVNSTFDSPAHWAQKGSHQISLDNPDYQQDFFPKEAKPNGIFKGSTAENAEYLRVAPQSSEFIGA
Outgoing: 50

***
Incoming: Form field - read-out: IC50; system: EGFR (human) (UniProt P00533); submitted item: COc1cc2nccc(Oc3ccc(C(=O)c4ccc(F)cc4)cc3)c2cc1OC
Outgoing: 75

Incoming: Form field - read-out: IC50; system: EGFR (human) (UniProt P00533); submitted item: COc1cc2nccc(Oc3cccc(C)c3)c2cc1OC
Outgoing: 14

Incoming: Form field - read-out: IC50; system: EGFR (human) (UniProt P00533); submitted item: COc1cc(OC)cc(Oc2ccnc3cc(OC)c(OC)cc23)c1
Outgoing: 49
